# TARGET OF ASSAY: adenosine A1 receptor (Rattus norvegicus, UniProt P25099)
# Construct: Whole brain minus cerebellum and brainstem from male Long Evans rats
# Sequence (P25099 whole entry): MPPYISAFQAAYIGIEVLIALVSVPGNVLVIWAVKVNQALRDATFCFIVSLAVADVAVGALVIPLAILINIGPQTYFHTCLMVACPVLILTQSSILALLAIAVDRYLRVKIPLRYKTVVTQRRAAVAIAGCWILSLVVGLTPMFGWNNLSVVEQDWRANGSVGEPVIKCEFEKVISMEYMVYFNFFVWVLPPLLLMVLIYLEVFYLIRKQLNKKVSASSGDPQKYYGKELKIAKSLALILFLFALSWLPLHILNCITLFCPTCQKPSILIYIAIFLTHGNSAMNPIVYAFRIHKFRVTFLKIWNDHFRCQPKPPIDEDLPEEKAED
# PROCEDURE SUMMARY: Adenosine Receptor Binding, A1 Receptor Affinity (RBA1), [3H]-CHA
# ASSAY CONDITIONS: rat brain membranes, 1.0 nM [3H]-CHA
pIC50: −log10 of the molar value.

{"COMPOUND": "C[C@H](O)CNc1ncnc2c1ncn2[C@@H]1O[C@H](CO)[C@@H](O)[C@H]1O [N^6-[(S)-2-hydroxypropyl]adenosine, N^6-[(S)-2-Hydroxypropyl]adenosine]", "pIC50": 8.22}

###

# TARGET OF ASSAY: UniProt:P30543
# Sequence (P30543 whole entry): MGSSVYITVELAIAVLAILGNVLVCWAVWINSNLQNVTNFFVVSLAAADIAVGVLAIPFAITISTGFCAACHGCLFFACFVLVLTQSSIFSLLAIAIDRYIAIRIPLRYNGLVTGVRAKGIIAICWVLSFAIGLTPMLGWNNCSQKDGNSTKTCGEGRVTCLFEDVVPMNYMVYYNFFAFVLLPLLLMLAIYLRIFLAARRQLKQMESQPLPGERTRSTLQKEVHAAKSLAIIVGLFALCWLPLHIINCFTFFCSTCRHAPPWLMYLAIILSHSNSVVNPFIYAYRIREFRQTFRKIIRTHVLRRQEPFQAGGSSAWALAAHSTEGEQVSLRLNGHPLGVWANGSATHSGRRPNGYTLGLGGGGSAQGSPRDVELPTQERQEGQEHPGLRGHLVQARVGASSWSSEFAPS

{"COMPOUND": "C[C@H](O)CNc1ncnc2c1ncn2[C@@H]1O[C@H](CO)[C@@H](O)[C@H]1O [N^6-[(S)-2-hydroxypropyl]adenosine, N^6-[(S)-2-Hydroxypropyl]adenosine]", "UNIT NAME": "µM", "IC50": 14}
